Measurement target: Glucocorticoid receptor (Homo sapiens)
Experimental details: qHTS assay to identify small molecule antagonists of the glucocorticoid receptor (GR) signaling pathway (AID 720692)
Assay setup: GR-bla HeLa, beta-lactamase FRET ratio, dexamethasone-stimulated, 18 h; series mostly up to 58.5 µM
Results filed as inconclusive are left out. Calls of active or inactive are those of the source. Calls come from the whole dose curve; as a rule, active = well fitted inhibition curve with a large enough effect in the signal ratio in the repeat runs (not every such curve was filed as active); inconclusive = weak or mixed curves, or effect the other way; inactive = no such curve, though single readings can be large or run the other way; the % refers to the signal ratio.
Quantity: outcome

Check out these entries, answers already filled in.
> print(dat)
                                   molecule  reported.value
1                              CNC(=S)N(C)C        inactive
2  CC(C)(C#N)c1cc(Cn2cncn2)cc(C(C)(C)C#N)c1        inactive
3                           CC(=O)CC(C)(C)O        inactive
4  CC(C)CCCCCCCOC(=O)CCCCC(=O)OCCCCCCCC(C)C        inactive
5                         CC(=O)c1ccc(O)cc1        inactive
6  CC(=O)OC1CC(C)OC(C)O1 (stereo not given)        inactive
7                                OCc1ccccc1        inactive
8                               CCCCCCCCCCO        inactive
9       CC(CCO)CC(C)(C)C (stereo not given)        inactive

Shifting focus to the molecule that follows.
Give outcome for the following molecule: COC(=O)c1cccnc1
inactive

====

Measurement target: Cytochrome P450 2D6 (Homo sapiens)
Experimental details: Cytochrome P450 Family 2 Subfamily D Member 6 (CYP2D6) small molecule antagonists: luciferase reporter qHTS assay (AID 1671196); note: nearly all actives have a fitted effect of over 50% in size
Assay setup: P450-Glo CYP2D6 enzyme assay, luciferin luminescence, 1 h; series mostly up to 115 µM
Inconclusive results are not listed. The source made the active and inactive calls. The call rests on the fitted dose curve; in most records, active means well fitted inhibition curve with a large enough effect in the repeat runs; inconclusive means weak or mixed curves; inactive means no such curve, though single readings can be large or run the other way.
The reply should be one of these categories: active, inactive

> print(dat)
                                   compound  category.label
1                      COc1ccc(CCC(C)=O)cc1        inactive
2  C[Si]1(C)O[Si](C)(C)O[Si](C)(C)O[Si](C)(C)O1        inactive
3                   O=C1c2ccccc2CCc2ccccc21        inactive
4                     O=C(O)c1cc2ccccc2cc1O        inactive
5                    c1ccc2c(c1)Cc1ccccc1-2        inactive

So what was the verdict on C=CC[N+](C)(C)CC=C in this test?
inactive

====

Experimental details: qHTS RealTime-Glo MT Cell Viability Assay in HEK293 cells - 32 hour (AID 1224868); note: top concentration of the series differs between compounds; nearly all actives have a fitted effect of over 50% in size
Assay setup: RealTime-Glo luminescence; series mostly up to 76.8 µM
Results filed as inconclusive are left out. Activity calls are given as the source filed them. The call rests on the fitted dose curve; in most records, active means well fitted cell-killing curve with a large enough effect in the repeat runs; inconclusive means weak or mixed curves, or effect the other way; inactive means flat fitted curve, though single readings scatter.
Quantity: outcome

Check out these entries, answers already filled in.
> print(dat)
                                 cpd.smiles  reported.value
1                     CCO[Si](CCCN)(OCC)OCC        inactive
2                        Brc1ccc(Br)c(Br)c1        inactive
3                     CCCCOC(=O)c1ccc(N)cc1        inactive
4                                OCc1ccccc1        inactive
5                     O=c1[nH]cnc2[nH]ncc12        inactive
6                                 O=C1CCCC1        inactive
7  CNC(=O)Oc1ccc2c(c1)[C@]1(C)CCN(C)[C@@H]1N2C        inactive
8                      CC(C)c1cccc(C(C)C)c1        inactive

Give outcome for the following compound: N#Cc1ccccc1
inactive

Give outcome for the following compound: CCOC(=O)n1ccn(C)c1=S
inactive

Give outcome for the following compound: O=C(O)c1ccccc1C(=O)O
inactive
